# TARGET_OF_ASSAY: human orexin-2 receptor (Homo sapiens (Human))
# Sequence (O43614 whole entry): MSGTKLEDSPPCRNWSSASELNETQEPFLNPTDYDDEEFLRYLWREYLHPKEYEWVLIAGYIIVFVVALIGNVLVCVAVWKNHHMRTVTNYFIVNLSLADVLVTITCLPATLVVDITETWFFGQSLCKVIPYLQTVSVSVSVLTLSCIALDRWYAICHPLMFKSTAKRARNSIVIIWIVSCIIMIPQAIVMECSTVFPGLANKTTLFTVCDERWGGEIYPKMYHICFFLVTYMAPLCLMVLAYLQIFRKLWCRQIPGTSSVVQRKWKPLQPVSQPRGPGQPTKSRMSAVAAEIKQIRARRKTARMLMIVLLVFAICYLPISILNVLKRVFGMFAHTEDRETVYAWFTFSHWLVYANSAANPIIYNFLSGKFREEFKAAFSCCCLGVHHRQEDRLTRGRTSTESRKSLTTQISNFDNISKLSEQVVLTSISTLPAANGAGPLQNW
# EXPERIMENTAL_PROTOCOL: In vitro assay: intracellular calcium measurements (FLIPR), antagonistic activity
# Type: cell-based
# RECORDED_CONDITIONS: CHO cells, 3 nM orexin-A, compound incubation 120 min; marked values are geometric means of n = 2-6; read-out: IC50 OX2

>  <COMPOUND>
CCOc1cccc(F)c1[C@@H]1C[C@@H](O)C(=O)N1Cc1ccc(OC(F)(F)F)c(F)c1 (racemic)

>  <IC50 [µM]>
0.053

$$$$
>  <COMPOUND>
CCOc1cccc(F)c1[C@@H]1C[C@@H](Cl)C(=O)N1Cc1ccc(OC(F)(F)F)cc1 (racemic)

>  <IC50 [µM]>
0.184

$$$$
>  <COMPOUND>
COc1cccc(OC)c1C1CCCCC(=O)N1Cc1cccc(-c2cccnc2)c1 (centres unmarked)

>  <IC50 [µM]>
0.046

$$$$
>  <COMPOUND>
CCOc1cccc(F)c1C1CC(C)C(=O)N1Cc1cccc(-c2ncc(C)s2)c1 (centres unmarked)

>  <IC50 [µM]>
0.002

$$$$
>  <COMPOUND>
COc1ccc2c(c1C1CCCC(=O)N1Cc1cccc(Oc3ccccc3)c1)OCO2 (centres unmarked)

>  <IC50 [µM]>
0.014

$$$$
>  <COMPOUND>
COc1cccc(OC)c1C1CC(C)C(=O)N1Cc1ccc2sc3ccccc3c2c1 (centres unmarked)

>  <IC50 [µM]>
0.008

$$$$
>  <COMPOUND>
COc1cccc(OC)c1C1CCCC(=O)N1Cc1cnc(OC(F)F)c(C)c1 (centres unmarked)

>  <IC50 [µM]>
0.077

$$$$
>  <COMPOUND>
COc1cccc(C)c1[C@@H]1C[C@H](Cl)C(=O)N1Cc1ccc(OC(F)(F)F)cc1 (racemic)

>  <IC50 [µM]>
0.126

$$$$

* * *

# TARGET_OF_ASSAY: UniProt O43614
# EXPERIMENTAL_PROTOCOL: In vitro assay: intracellular calcium measurements (FLIPR), antagonistic activity
# Assay type: cell-based
# RECORDED_CONDITIONS: CHO cells, 3 nM orexin-A, compound incubation 120 min; marked values are geometric means of n = 2-6; read-out: IC50 OX2
pIC50: −log10 of the molar value.
Is pIC50 at least 7? Then fulfilled. If not, not fulfilled.

>  <MOLECULE>
COc1cccc(OC)c1C1CCCC(=O)N1Cc1cccc(-n2ccnc2)c1 (centres unmarked)

>  <LABEL>
not fulfilled

$$$$
>  <MOLECULE>
COc1cccc(OC)c1C1CC(C)C(=O)N1Cc1ccnc(-c2ncc(C)s2)c1 (centres unmarked)

>  <LABEL>
fulfilled

$$$$
>  <MOLECULE>
COc1ccc2nc(C)oc2c1C1CCCC(=O)N1Cc1ccc2ccccc2n1 (centres unmarked)

>  <LABEL>
not fulfilled

$$$$
>  <MOLECULE>
CC1CC(c2c(F)cccc2OCCF)N(Cc2ccc(OC(F)(F)F)cc2)C1=O (centres unmarked)

>  <LABEL>
fulfilled

$$$$
>  <MOLECULE>
CCc1nc2ccc(OC)c(C3CCCC(=O)N3Cc3cccc(-c4csc(C)n4)c3)c2o1 (centres unmarked)

>  <LABEL>
fulfilled

$$$$
>  <MOLECULE>
CCOc1cc(F)ccc1[C@@H]1C[C@@H](O)C(=O)N1Cc1ccc(OC(F)(F)F)cc1 (racemic)

>  <LABEL>
not fulfilled

$$$$
